Target: T1, APG293 (human CD95L-T4) (human)
T1 chain: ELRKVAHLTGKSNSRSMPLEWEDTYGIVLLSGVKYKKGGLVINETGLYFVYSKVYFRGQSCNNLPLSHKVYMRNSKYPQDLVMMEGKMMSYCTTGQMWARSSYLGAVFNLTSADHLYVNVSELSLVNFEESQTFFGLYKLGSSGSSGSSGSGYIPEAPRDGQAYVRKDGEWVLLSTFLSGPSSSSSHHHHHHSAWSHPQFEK
Test: cell-based or functional assay
Readout label: EC50, Assay 1: antagonism of CD95L-T4-induced apoptosis on Jurkat A3 cells (ng/mL)

Binder	Recorded measurement
scFv-minibody SEQ ID 38 (scFv) scFv: EVQLVESGGGLVQPGGSLRLSCAASGFSFSSGYDMCWVRQAPGKGLEWVACIDTDNDATYYASWAKGRFTISKDSSKNTLYLQMNSLRAEDTAVYYCARTHGDYVAFKLWGQGTLVTVSGGGSGGGSGGGSGGGSDIQMTQSPSSLSASVGDRVTITCQSSQSVYKNNDLSWYQQKPGKAPKLLIYQASKLASGVPSRFSGSGSGTDFTLTISSLQPEDFATYYCAGGYTASIYAFGQGTKVEIKGSGSSGQPREPQVYTLPPSREEMTKNQVSLTCLVKGFYPSDIAVEWESQGSPENNYKTTPPVLDSDGSFFLYSKLTVDKSRWQQGNVFSCSVMHEALHNHYTQKSLSLSPGSSSSSSAWSHPQFEK	118
